Target: rat brain A1 adenosine receptor (Rattus norvegicus)
Sequence (P25099 whole entry): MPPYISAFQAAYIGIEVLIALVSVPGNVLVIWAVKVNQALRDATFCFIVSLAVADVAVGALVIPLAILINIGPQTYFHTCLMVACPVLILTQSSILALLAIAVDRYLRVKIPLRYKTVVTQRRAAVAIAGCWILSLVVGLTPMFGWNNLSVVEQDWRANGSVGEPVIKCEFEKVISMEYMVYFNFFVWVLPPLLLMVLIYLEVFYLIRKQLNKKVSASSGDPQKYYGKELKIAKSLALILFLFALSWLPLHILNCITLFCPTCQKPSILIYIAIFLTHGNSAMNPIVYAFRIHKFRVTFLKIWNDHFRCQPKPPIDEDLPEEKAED
Test: biochemical
QUANTITY_KIND: pKi
For clarity, pKi is expressed as the negative log10 of concentration in mol/L.

CCCOc1ccc(NC(=O)Nc2ncnc3c2ncn3[C@@H]2O[C@H](C(=O)NCC)[C@@H](O)[C@H]2O)cc1 [Compound 3m] has a reported pKi of 6.59

###

Below, each entry is listed alongside its reported Ki.
Molecular target: rat A3 adenosine receptor (Rattus norvegicus, UniProt P28647);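 also: radioligand binding on membrane homogenates, 1 h incubation at 37 °C in duplicate, gamma counting of filter-bound radioactivity, nonspecific binding defined using 200 µM NECA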
Sequence (P28647 1-320): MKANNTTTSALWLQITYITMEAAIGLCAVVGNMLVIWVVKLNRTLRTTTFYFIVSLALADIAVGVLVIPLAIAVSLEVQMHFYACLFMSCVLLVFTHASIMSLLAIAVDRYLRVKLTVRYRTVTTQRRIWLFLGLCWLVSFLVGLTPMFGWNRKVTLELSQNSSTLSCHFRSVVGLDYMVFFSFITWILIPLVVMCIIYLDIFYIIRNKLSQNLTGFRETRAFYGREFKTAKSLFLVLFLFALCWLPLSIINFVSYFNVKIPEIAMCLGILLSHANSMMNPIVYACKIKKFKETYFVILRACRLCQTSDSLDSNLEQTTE

Sample records with Ki:
# STRUCTURE_STRING, TARGET, Ki
data = [
    ("CCNC(=O)[C@H]1O[C@@H](n2cnc3c(NC(=O)Nc4ccc(S(N)(=O)=O)cc4)ncnc32)[C@H](O)[C@@H]1O", "rat A3 adenosine receptor (Rattus norvegicus, UniProt P28647)", "9.7 to 107 nM"),
    ("CCCOc1ccc(NC(=O)Nc2ncnc3c2ncn3[C@@H]2O[C@H](C(=O)NCC)[C@@H](O)[C@H]2O)cc1", "rat A3 adenosine receptor (Rattus norvegicus, UniProt P28647)", "9.7 to 107 nM"),
]

Continue with the next molecule.
The molecule `CCNC(=O)[C@H]1O[C@@H](n2cnc3c(NC(=O)Nc4ccc(C(C)=O)cc4)ncnc32)[C@H](O)[C@@H]1O` , tested on rat A3 adenosine receptor (Rattus norvegicus, UniProt P28647), showed Ki of 9.7 to 107 nM
